Test system: DeltatarO mutant
Assay: S. aureus survival, RN4220 and DeltatarO strains – OD600, teichoic acid synthesis inhibitors, primary screen (AID 463173)
Settings: S. aureus RN4220 wild type/DeltatarO growth, OD600, 18 h, hits give low values, screened at 18.75 µg/mL (by protocol)
The whole screen tested about 52,000 compounds, of which about 4,300 (8.3%) were called active. The list comes from a sample in which actives are over-represented; it also holds close analogues and randomly drawn compounds.
Give survival for every item shown.
Numbers only, in %.

Please review the entries below; each comes with its answer.
>>> measurement("CC(=O)c1ccc(NC(=O)CN(C)S(=O)(=O)c2cc3c(cc2Cl)NC(=O)CO3)cc1")
72
>>> measurement("Cc1ccc(-c2nc(SCC(=O)Nc3cc(C)on3)c3c(=O)n(C)c(=O)n(C)c3n2)cc1")
83
>>> measurement("COc1ccc(NC(=O)c2cc3nc(-c4ccc(Cl)c(Cl)c4)cc(C(F)(F)F)n3n2)c(OC)c1")
47
>>> measurement("COc1ccccc1NC(=O)C1CCCN(c2nnc(C)c3c(C)n(-c4ccccc4)nc23)C1 (stereo not given)")
84

Kindly consider the entry below.
In: Which value of survival has been reported for COc1cc(NC(=O)c2cc3nc(-c4ccc(C)cc4)cc(C(F)(F)F)n3n2)cc(OC)c1OC in the records?
Out: 41

Cited source for all entries: PubChem BioAssay AID463173
